Below: a set of entries, each annotated with reported % α-Amylase Activity.
System: α-amylase
Assay: α-amylase enzyme inhibition assay
Format: biochemical, Saccharomyces cerevisiae
Details: concentration 250 µg/mL

{"Compound": "O=C(O)Cc1ccc(F)c(F)c1", "Units symbol": "%", "% α-Amylase Activity": 19.67}
{"Compound": "Cc1ccccn1.Cc1ccccn1.O=C([O-])Cc1ccc(F)c(F)c1.O=C([O-])Cc1ccc(F)c(F)c1.O=C([O-])Cc1ccc(F)c(F)c1.O=C([O-])Cc1ccc(F)c(F)c1.[Cu+2].[Cu+2] [complex 1, [Cu2(3,4-F2C6H3CH2COO)4(2-CH3py)2]]", "Units symbol": "%", "% α-Amylase Activity": 41.12}
{"Compound": "Cc1cccnc1.Cc1cccnc1.O=C([O-])Cc1ccc(F)c(F)c1.O=C([O-])Cc1ccc(F)c(F)c1.O=C([O-])Cc1ccc(F)c(F)c1.O=C([O-])Cc1ccc(F)c(F)c1.[Cu+2].[Cu+2] [complex 2, [Cu2(3,4-F2C6H3CH2COO)4(3-CH3py)2]]", "Units symbol": "%", "% α-Amylase Activity": 38.00}
{"Compound": "C[C@H]1O[C@H](O[C@H]2[C@H](O)[C@@H](O)[C@@H](O[C@H]3[C@H](O)[C@@H](O)C(O)O[C@@H]3CO)O[C@@H]2CO)[C@H](O)[C@@H](O)[C@@H]1N[C@H]1C=C(CO)[C@@H](O)[C@H](O)[C@H]1O (stereo partly shown) [Acrabose, acarbose, reference compound]", "Units symbol": "%", "% α-Amylase Activity": 68.61}

---

Below: a set of entries, each annotated with reported % α-Amylase Activity.
Tested on: α-amylase
Test: α-amylase enzyme inhibition assay
Format: biochemical, Saccharomyces cerevisiae
Conditions: concentration 31.25 µg/mL

{"Compound": "Cc1ccccn1.Cc1ccccn1.O=C([O-])Cc1ccc(F)c(F)c1.O=C([O-])Cc1ccc(F)c(F)c1.O=C([O-])Cc1ccc(F)c(F)c1.O=C([O-])Cc1ccc(F)c(F)c1.[Cu+2].[Cu+2] [complex 1, [Cu2(3,4-F2C6H3CH2COO)4(2-CH3py)2]]", "Measured target": "α-amylase", "% α-Amylase Activity": "6.03%"}
{"Compound": "C[C@H]1O[C@H](O[C@H]2[C@H](O)[C@@H](O)[C@@H](O[C@H]3[C@H](O)[C@@H](O)C(O)O[C@@H]3CO)O[C@@H]2CO)[C@H](O)[C@@H](O)[C@@H]1N[C@H]1C=C(CO)[C@@H](O)[C@H](O)[C@H]1O (stereo partly shown) [Acrabose, acarbose, reference compound]", "Measured target": "α-amylase", "% α-Amylase Activity": "14.34%"}
{"Compound": "Cc1cccnc1.Cc1cccnc1.O=C([O-])Cc1ccc(F)c(F)c1.O=C([O-])Cc1ccc(F)c(F)c1.O=C([O-])Cc1ccc(F)c(F)c1.O=C([O-])Cc1ccc(F)c(F)c1.[Cu+2].[Cu+2] [complex 2, [Cu2(3,4-F2C6H3CH2COO)4(3-CH3py)2]]", "Measured target": "α-amylase", "% α-Amylase Activity": "5.33%"}
{"Compound": "O=C(O)Cc1ccc(F)c(F)c1 [HL, 3,4-difluorophenylacetic acid]", "Measured target": "α-amylase", "% α-Amylase Activity": "1.72%"}

---

Test: Hydroxyl radical scavenging assay
Conditions: hydroxyl radical; dose conc. 15 µM
Below: a set of entries, each annotated with reported % Inhibition.
Reported metric: % Inhibition (%)

{"Molecule": "O=C1O[C@H]([C@@H](O)CO)C(O)=C1O [Vit. C, ascorbic acid, reference compound]", "Reported metric": "% Inhibition", "Units symbol": "%", "Assay result": 6.78}
{"Molecule": "Cc1ccccn1.Cc1ccccn1.O=C([O-])Cc1ccc(F)c(F)c1.O=C([O-])Cc1ccc(F)c(F)c1.O=C([O-])Cc1ccc(F)c(F)c1.O=C([O-])Cc1ccc(F)c(F)c1.[Cu+2].[Cu+2] [complex 1, [Cu2(3,4-F2C6H3CH2COO)4(2-CH3py)2]]", "Reported metric": "% Inhibition", "Units symbol": "%", "Assay result": 0.05}
{"Molecule": "O=C(O)Cc1ccc(F)c(F)c1", "Reported metric": "% Inhibition", "Units symbol": "%", "Assay result": 0.009}
{"Molecule": "Cc1cccnc1.Cc1cccnc1.O=C([O-])Cc1ccc(F)c(F)c1.O=C([O-])Cc1ccc(F)c(F)c1.O=C([O-])Cc1ccc(F)c(F)c1.O=C([O-])Cc1ccc(F)c(F)c1.[Cu+2].[Cu+2] [complex 2, [Cu2(3,4-F2C6H3CH2COO)4(3-CH3py)2]]", "Reported metric": "% Inhibition", "Units symbol": "%", "Assay result": 0.04}
